From: patent US11040026B2

target-of-assay: muscarinic M1 receptor (Homo sapiens, UniProt P11229)
Sequence (P11229 whole entry): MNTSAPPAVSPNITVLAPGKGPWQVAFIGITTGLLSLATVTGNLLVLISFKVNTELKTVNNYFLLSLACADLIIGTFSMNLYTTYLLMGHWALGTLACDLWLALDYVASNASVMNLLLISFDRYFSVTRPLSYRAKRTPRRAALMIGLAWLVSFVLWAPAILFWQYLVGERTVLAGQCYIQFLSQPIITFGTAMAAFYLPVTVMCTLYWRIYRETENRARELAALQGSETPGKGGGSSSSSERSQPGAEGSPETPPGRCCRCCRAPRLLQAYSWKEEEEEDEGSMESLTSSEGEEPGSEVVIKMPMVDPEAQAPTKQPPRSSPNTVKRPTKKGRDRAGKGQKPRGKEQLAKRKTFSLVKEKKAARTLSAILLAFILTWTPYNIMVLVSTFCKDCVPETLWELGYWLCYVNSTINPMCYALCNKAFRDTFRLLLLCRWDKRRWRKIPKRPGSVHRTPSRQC
method-notes: Allosteric potency EC50 for muscarinic M1 receptor (CHO pCRE-Luc reporter assay)
cond: in presence of EC20 of acetylcholine; CHO cells, luciferase reporter, 4 hours
pEC50: −log10 of the molar value.
quantity-kind: pEC50

{"compound": "Cc1ccc(Cc2cc(C(=O)N[C@H]3CCCC[C@@H]3O)nc3c2ccn3C)cn1 [Example 9]", "pEC50": 5.80}
{"compound": "CN1CCOc2c(Cc3ccc(-n4cccn4)cc3)cc(C(=O)N[C@H]3CCCC[C@@H]3O)nc21 [Example 129]", "pEC50": 7.82}
{"compound": "Cn1ccc2c(Cc3ccc(-c4cscn4)cc3)cc(C(=O)N[C@@H]3CCOC[C@H]3O)nc21 (single isomer, unassigned; isomer-i) [Example 54]", "pEC50": 6.12}
{"compound": "CN1CCc2c(Cc3ccnc(F)c3)cc(C(=O)N[C@H]3CCCC[C@@H]3O)nc21 [Example 73]", "pEC50": 6.10}
{"compound": "Cn1ccc2c(Cc3ccc(-c4cscn4)cc3)cc(C(=O)NCC(C)(C)O)nc21 [Example 24]", "pEC50": 6.08}

1 = Cn1ccc2c(Cc3cccc(F)c3F)cc(C(=O)N[C@H]3CCCC[C@@H]3O)nc21 [Example 16]
2 = Cn1ccc2c(Cc3ccc(-c4ccc(F)nc4)nc3)cc(C(=O)N[C@H]3CCCC[C@@H]3O)nc21 [Example 13]
Would you let me know which has the greater pEC50 value, 1 or 2 ? Answer by quoting the chosen item's label. 2
